Molecular target: L-lactate dehydrogenase (Plasmodium falciparum (isolate CDC / Honduras))
Experiment: PfLDH activity inhibition – cell lysate, 3D7 strain, counter-screen for P. falciparum growth inhibition project (AID 2304);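 further: 0% = vehicle and 100% = reference inhibitor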
Conditions: P. falciparum 3D7 crude extract, LDH APAD/NBT absorbance; at 2 µM; active compounds read high
Active and inactive are the calls of the source. How the calls were made is not given here.
property.label: inhibition

COc1ccc(NC(=O)NC2CCN(c3ccnc4cc(Cl)ccc34)C2)cc1 (centres undefined) : -2% (inactive)
CN(C(=O)Cc1ccc(Cl)c(Cl)c1)C1CCN(CCCCCNC(=O)/C=C/c2ccc(Cl)c(Cl)c2)CC1 : -4% (inactive)
O=C(NCc1cccc(OC(F)(F)F)c1)c1cnc2c(c1)nc(-c1cnc(-c3ccccc3)[nH]1)n2CCc1cnc[nH]1 : -10% (inactive)
Cc1ccc(NC(=O)NC2CCN(c3ccnc4cc(Cl)ccc34)C2)cc1 (centres undefined) : 5% (inactive)
Cc1cc(NCCc2ccccc2)nc(/N=C(\N)Nc2cccc(Cl)c2)n1 : 4% (inactive)
Cc1ccc2c(-c3ccc([N+](=O)[O-])o3)cc(C)nc2c1 : 3% (inactive)
O=C(/C=C/c1ccc(Cl)c(Cl)c1)NC1CCC(CN2CCC(Cc3cc4ccccc4[nH]3)CC2)CC1 (centres undefined) : -8% (inactive)
CC(CN(C)C)C(=O)Nc1cccc(-c2ccc(-c3nc4ccccc4[nH]3)cc2)c1 (centres undefined) : -8% (inactive)
Nc1nc(N)c2c(ccc3c2ccn3C2C=CCCC2)n1 (centres undefined) : -2% (inactive)
Brc1ccc(C=NNc2nc3ccccc3[nH]2)cc1 : 0% (inactive)
Cc1cc(F)ccc1-c1nc(NCCCN2CCCC2=O)nc2c1ccc(=O)n2-c1c(F)cccc1F : -5% (inactive)
CN1CCCC1CNS(=O)(=O)c1ccc(C(=O)NCC2CC2)cc1 (centres undefined) : -1% (inactive)
COc1ccc2nccc([C@@H](O)CN3CC[C@H](NCc4ccc5c(n4)NC(=O)CS5)[C@H](F)C3)c2c1 : 0% (inactive)
FC(F)(F)c1ccc2nc(-c3cccc(-c4ccc(CNCc5ccccc5)cc4)c3)[nH]c2c1 : -4% (inactive)
CCOc1cc(NCCSCc2nc[nH]c2C)nc2ccccc12 : 1% (inactive)
CCOC(=O)CCCCOc1c(OC)cc(Cc2cnc(N)nc2N)cc1OC : 5% (inactive)
COc1ccc(NC(=O)CCNc2cc(C)nc(NCCc3ccccc3)n2)cc1 : -2% (inactive)
O=C(Nc1cccc(CN2CCCN(Cc3ccc(O)cc3)CC2)c1)c1ccc(Cl)c(Cl)c1 : -1% (inactive)
Cc1cc(O)c2c(c1)OC(C)(C)C=C2C1=CCN(Cc2ccccc2)CC1 : -3% (inactive)
CS(=O)(=O)NCCCNCc1cccc(-c2csc(-c3nc4ccccc4[nH]3)c2)c1 : 8% (inactive)
O=C(CC1CCCC1)Nc1ccc2c(c1)CCC2 : 2% (inactive)
CCCCNC(=O)C(C)NC(=O)c1ccc(O)c(-c2ccc(Cl)c(Cl)c2)c1 (centres undefined) : 2% (inactive)
CC1CCCN(C(=O)c2cc(-c3ccccn3)nc3c(Cl)cccc23)C1 (centres undefined) : -5% (inactive)
COc1cc(CNCCCNc2nc3ccsc3c(=O)[nH]2)c2[nH]cc(Cl)c2c1 : 2% (inactive)
Cn1cncc1C(=O)Nc1cccc(-c2cccc(-c3nc4ccccc4[nH]3)c2)c1 : 3% (inactive)
O=c1c(Br)c(C(F)(F)F)[nH]c2ccc(Oc3ccccc3)cc12 : 0% (inactive)
O=C(Nc1cccc(-c2nn3ccccc3c2-c2ccnc(Nc3ccccc3)n2)c1)c1c(F)cccc1F : -6% (inactive)
O=C(/C=C/c1ccc(Cl)c(Cl)c1)N1CCN(C(=O)Nc2cccc(C(F)(F)F)c2)CC1 : 4% (inactive)
CCN(CC)CCN(Cc1ccc(-c2ccc(Cl)cc2)cc1)C(=O)Cn1c(CCc2cccc(F)c2F)nc(=O)c2ccccc21 : -4% (inactive)
CC(C)=C(C(=O)OCc1ccccc1)N1C(=O)[C@@H](NC(c2ccccc2)(c2ccccc2)c2ccccc2)[C@H]1[S@@](=O)CC(=O)OC(C)(C)C : -4% (inactive)
O=c1c(NCCCN(Cc2ccc(F)cc2)c2ccccn2)c(NCc2cccnc2)c1=O : -2% (inactive)
CCn1ncc2c(N3CCCC3=O)cc(C(=O)N[C@@H](Cc3ccccc3)[C@H](O)CNC(C)(C)c3cccc(OC)c3)cc21 : 0% (inactive)
CO/C(=C\C=C\c1cc2cc(Cl)c(Cl)cc2[nH]1)C(=O)NCCCN1CCCC[C@H]1C : 3% (inactive)
COCCNC(=O)C(CNC(=O)c1ccc2c(c1)OCO2)NC(=O)c1ccc(-c2ccccc2)cc1 (centres undefined) : 1% (inactive)
O[C@@H](c1ccccc1)[C@@H]1CN(CCc2ccccc2)CC[C@@]1(O)c1ccccc1 : -2% (inactive)
O=C1OC(c2cc3ccccc3n2S(=O)(=O)c2ccccc2)(c2cc3ccccc3n2S(=O)(=O)c2ccccc2)c2ccccc21 : -1% (inactive)
COc1ccc2nccc(N3CCC(CCNCc4cc5c(cn4)OCCO5)CC3)c2n1 : 7% (inactive)
COc1ccc(Cc2c(N)nc3nc(N)nc(N)c3c2C)cc1 : -8% (inactive)
Oc1ccc(CNCCCCCCNCCc2ccc(Cl)cc2)cc1O : 2% (inactive)

###

Assay: inhibition of 3D7 malaria parasite growth – strain 3D7 (AID 2306);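 further: 0% = DMSO wells and 100% = chloroquine plus artemisinin control wells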
Settings: P. falciparum 3D7 erythrocytic growth, LDH absorbance, 72 h; at 2 µM; active compounds read high
property.label: growth inhibition (%)

CCCCNC(=O)[C@H](CC1CCCCC1)NC(=O)c1ccc(O)c(-c2ccc(Cl)c(Cl)c2)c1 : 98
CN(C)CCC1CCCc2ccc(NC(=O)Nc3cccc(Cl)c3Cl)cc21 (centres undefined) : 93
Cc1cc(N2CCCN(CC3CCCCC3)CC2)nc(Nc2ccc(Br)cc2)n1 : 95
Cc1nc(Nc2ccc(F)cc2)nc(N2CCc3cc(O)ccc3C2C)c1C (centres undefined) : 99
COc1ccc(NC(=O)/C=C/c2ccc(Cl)c(Cl)c2)cc1N1CCN(C)CC1 : 90
COc1cc(F)c2ncc(Cl)c(CCN3CCC(NCc4ccc5c(n4)NC(=O)CS5)CC3)c2c1 : 99
OC(CNC1CCCCC1)Cn1c2ccccc2c2ccccc21 (centres undefined) : 97
Cc1ccc(-c2cc(C(=O)Nc3ccc(S(=O)(=O)N4CCCC(C)C4)cc3)[nH]n2)c(O)c1 (centres undefined) : 102
CCC1(CC)N=C(N)N=C(N)N1OCc1ccc(Cl)c(Cl)c1 : 94
Cc1cc(NN=Cc2ccccc2Cl)c2ccccc2n1 : 102
COC(=O)c1cccc(CNCc2cccc(-c3cccc(-c4nc5c(C)cccc5[nH]4)c3)c2)c1 : 101
O=C(NCCc1cccc(F)c1)c1cc(Br)cc(N2CCN(c3ccncc3)CC2)c1 : 100
COC(=O)c1cccc(CNCc2ccc(-c3ccc(-c4nc5ccc(C(F)(F)F)cc5[nH]4)s3)cc2)c1 : 101
O=C(Nc1cccc(-c2nn3ccccc3c2-c2ccnc(Nc3cccc(F)c3)n2)c1)c1c(F)ccc(F)c1F : 96
CCN(CC)CCN(Cc1ccc(-c2ccc(C(F)(F)F)cc2)cc1)C(=O)Cn1c(SCc2ccc(F)c(F)c2F)nc(=O)c2c1CCC2 : 91
CCN(CC)CCN(Cc1ccc(-c2ccc(C(F)(F)F)cc2)cc1)C(=O)Cn1c(/C=C/c2ccco2)nc(=O)c2ccccc21 : 94
CCN(CC)c1nc(-c2ccccc2)cc(-c2ccccc2)c1C#N : 100
O=C(CCCCCNC(=O)c1ccc(O)c(-c2ccc(Cl)c(Cl)c2)c1)NCCN1CCCC1 : 90
CC1CCN(CCCNc2ccc(C(=O)Nc3ccc(C(F)(F)F)cc3)cc2[N+](=O)[O-])CC1 : 101
CC1CCC2(CC1)N=C(N)N=C(N)N2OCc1cc2ccccc2c2ccccc12 (centres undefined) : 97
Cc1cccc2c(C(=O)NC3CCN(Cc4ccccc4)CC3)cc(-c3cccnc3)nc12 : 81
Cc1cc(N[C@@H](Cc2ccccc2)C(=O)Nc2ccccc2)nc(NCCc2ccccn2)n1 : 97
Cc1ccc(Cn2cnc(N3CC(C)NC(C)C3)cc2=O)cc1NC(=O)Nc1ccc(-c2ccccc2)cc1 (centres undefined) : 96
CCc1c(C(=O)NC2CCC(N3CCC(c4ccccc4OC)CC3)CC2)[nH]c2ccc(OC)cc12 (centres undefined) : 101
CCc1ccc(-c2nc3cc(NC(=O)c4cc([N+](=O)[O-])cc([N+](=O)[O-])c4)ccc3o2)cc1 : 93
CCNc1cc(C(=O)N[C@@H](Cc2ccccc2)[C@H](O)CN[C@H](C)C(C)(C)C)cc(N2CCCCS2(=O)=O)c1 : 95
Cc1ccc(N/C(N)=N/c2ncccc2OCc2c(F)cccc2Cl)cc1 : 86
Cc1ccccc1CCNC(=O)c1ccc(N2CCN(c3ccncc3)CC2)nc1 : 95
Clc1ccc(OCc2ccccc2)c(Cc2ccc(-c3nc4ccncc4[nH]3)o2)c1 : 99
CCn1ccc2c(N3CCCS3(=O)=O)cc(C(=O)N[C@@H](Cc3ccccc3)[C@H](O)CNC(C)(C)CCCC(C)C)cc21 : 97
CC1CCCC(NC(=O)CCOc2ccccc2)C1 (centres undefined) : 96
Cc1cccc(C(=O)Nc2ccnc(N3CCC(N(C)Cc4cccc(C#N)c4)CC3)c2)c1 : 101
Cc1cnc(CCNC(=O)c2cc(-c3ccc(Cl)cc3)cs2)[nH]1 : 101
CSc1nnc2n(Cc3ccccc3)c(=O)c3c(n12)-c1ccccc1CC31CCCCC1 : 93
COc1cccc(Nc2nc(N)c3ccccc3n2)c1 : 88
CCc1ccc(S(=O)(=O)Nc2ccc(CCN(C)C3CCN(C)CC3)cc2)cc1 : 86
Cc1nc(N)nc(N)c1-c1ccc(Br)cc1 : 98
O=C(NC1CC1)c1cnc(N2CCN(Cc3c(F)cccc3Cl)CC2)c(Cl)c1 : 93
O=C(Nc1ccc(OC2CCN(Cc3ccsc3)CC2)c(Cl)c1)c1cccs1 : 94
